Test system: Southern Armyworm [Spodoptera eridania (Cramer)]
assay.comment: whole plant or invertebrate
Assay type: in vivo
experimental.context: 48 h, read-out: % kill, Southern Armyworm 3rd Instar
observation.type: mortality at 10 ppm (%)
Give the value in % but do not write % after it.

Q. Give its mortality at 10 ppm value. Item: CC(=O)N1CCCCN=C1NN=C(C=Cc1ccc(C(F)(F)F)cc1)C=Cc1ccc(C(F)(F)F)cc1
A. 100

Q. Give its mortality at 10 ppm value. Item: CC1(C)CN=C(NN=C(C=Cc2ccc(Cl)cc2)C=Cc2ccc(Cl)cc2)N(C(=O)c2ccccc2)C1
A. 30

Q. Give its mortality at 10 ppm value. Item: CCCCCCCCCCCC(=O)N1CC(C)(C)CN=C1NN=C(C=Cc1ccc(C(F)(F)F)cc1)C=Cc1ccc(C(F)(F)F)cc1 [R1=CF3, R3=n-C11 H23]
A. 0

Q. Give its mortality at 10 ppm value. Item: CCCCCCCCCCCCCCCC(=O)N1CC(C)(C)CN=C1NN=C(C=Cc1ccc(C(F)(F)F)cc1)C=Cc1ccc(C(F)(F)F)cc1 [R1=CF3, R3=n-C15 H31]
A. 0

Q. Give its mortality at 10 ppm value. Item: CCCCCCCCC=CCCCCCCCC(=O)N1CC(C)(C)CN=C1NN=C(C=Cc1ccc(C(F)(F)F)cc1)C=Cc1ccc(C(F)(F)F)cc1 [R1=CF3, R3=n-C8 H17CHCH(CH2)7]
A. 20

Q. Give its mortality at 10 ppm value. Item: CC(=O)N1CC(C)(C)CN=C1NN=C(C=Cc1ccc(C(F)(F)F)cc1)C=Cc1ccc(C(F)(F)F)cc1 [R1=CF3, R3=CH3]
A. 0

Q. Give its mortality at 10 ppm value. Item: CCCCC(CC)C(=O)N1CC(C)(C)CN=C1NN=C(C=Cc1ccc(C(F)(F)F)cc1)C=Cc1ccc(C(F)(F)F)cc1 (stereo not shown)
A. 0

---

System: Cabbage Looper [Trichoplusia ni (Hubner)]
assay.comment: Insecticide test, cabbage looper 3rd instar
Type: in vivo
experimental.context: 48 h, 100 ppm, 2 days, 26.7° C., read-out: % kill, Cabbage Looper 3rd Instar
observation.type: mortality at 100 ppm

Q. Give its mortality at 100 ppm value. Item: CCCCCCCCCCCCCCCC(=O)N1CC(C)(C)CN=C1NN=C(C=Cc1ccc(Cl)cc1)C=Cc1ccc(Cl)cc1 [R1=Cl, R3=n-C15 H31]
A. 0%

Q. Give its mortality at 100 ppm value. Item: CCCCCCCCCCCCCC(=O)N1CC(C)(C)CN=C1NN=C(C=Cc1ccc(C(F)(F)F)cc1)C=Cc1ccc(C(F)(F)F)cc1 [R1=CF3, R3=n-C13 H27]
A. 60%

Q. Give its mortality at 100 ppm value. Item: CCCCC(CC)C(=O)N1CC(C)(C)CN=C1NN=C(C=Cc1ccc(C(F)(F)F)cc1)C=Cc1ccc(C(F)(F)F)cc1 (centres unmarked)
A. 90%

Q. Give its mortality at 100 ppm value. Item: CCCCCCCCC=CCCCCCCCC(=O)N1CC(C)(C)CN=C1NN=C(C=Cc1ccc(C(F)(F)F)cc1)C=Cc1ccc(C(F)(F)F)cc1 [R1=CF3, R3=n-C8 H17CHCH(CH2)7]
A. 100%

Q. Give its mortality at 100 ppm value. Item: CCCCCCCC(=O)N1CC(C)(C)CN=C1NN=C(C=Cc1ccc(C(F)(F)F)cc1)C=Cc1ccc(C(F)(F)F)cc1 [R1=CF3, R3=n-C7 H15]
A. 90%

Q. Give its mortality at 100 ppm value. Item: CC(=O)N1CC(C)(C)CN=C1N(N=C(C=Cc1ccc(C(F)(F)F)cc1)C=Cc1ccc(C(F)(F)F)cc1)C(C)=O
A. 86 to 95%

Q. Give its mortality at 100 ppm value. Item: CC1(C)CN=C(NN=C(C=Cc2ccc(C(F)(F)F)cc2)C=Cc2ccc(C(F)(F)F)cc2)N(C(=O)c2ccc(C(C)(C)C)cc2)C1
A. 100%

Q. Give its mortality at 100 ppm value. Item: CC1(C)CN=C(NN=C(C=Cc2ccc(Cl)cc2)C=Cc2ccc(Cl)cc2)N(C(=O)c2ccccc2)C1
A. 100%
